- assay-comment: chemical genetic growth profiling, strain panel (AID 1159580);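 further: tested at 20 µM; growth read once vehicle control cultures reached saturation at 30 °C; lower values mean less growth of the strain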
- assay-conditions: S. cerevisiae deletion strains, growth OD, locus YGL173C, strain kem1
In all, about 5,500 compounds went through this assay and about 2,000 (36%) were called active. Another 18% or so got no clear call; they are omitted. No stated cut-off is given here; in the data, active means normalized growth mostly below about 0.91 (no sharp cut-off); inconclusive means no clear call, values can overlap the other calls; inactive means mostly above about 0.92. This is one part of the list.
# valid calls are Y for active, N for inactive; nothing else

Hi, do you know how C[C@]12CCC(=O)C=C1CCC1C2CC[C@@]2(C)C1CC[C@@H]2O (stereo partly specified) came out in this test?
N

Write down the call the test reported for this compound. Item: COP(=O)(OC)OC=C(Cl)Cl
N

Recorded test call requested for CCOC(=O)C(Cc1ccc(O)cc1)NC(C)=O (stereo unspecified)
N

Kindly provide the recorded test outcome for the following compound: CCCCNc1cc(C(=O)O)cc(S(N)(=O)=O)c1Oc1ccccc1
N

Could you please tell me the result logged for CCN(CC)CCNC(=O)c1cc(Br)c(N)cc1OC in this assay?
N

Recorded call for CCOC(=O)[C@H](CCc1ccccc1)N[C@H]1CCc2ccccc2N(CC(=O)O)C1=O ?
N

Returns: the outcome recorded for CCC(=O)O[C@H]1CCC2C3CCC4=CC(=O)CC[C@]4(C)C3CC[C@@]21C (stereo partly specified) in this assay.
Y

Assay outcome for ClC1=C(Cl)C2(Cl)C3C(Cl)C=CC3C1(Cl)C2(Cl)Cl (stereo unspecified) : what was it?
N

Please let me know the test result on file for CC1=C(CC(=O)O)c2cc(F)ccc2/C1=C\c1ccc(S(C)=O)cc1 (stereo unspecified) .
N

What did this assay record as the result for CC(=O)[C@H]1CCC2C3CCC4=CC(=O)CC[C@]4(C)C3CC[C@@]21C (stereo partly specified) ?
N

So what was the verdict on NCC1CCC(C(=O)O)CC1 (stereo unspecified) in this test?
N
